# Species on record: Rattus norvegicus
# RUN DESCRIPTION: Open TG-GATES - Regimen: Daily Repeat
# Format: toxicity, organism-based, Sprague-Dawley
# Set-up: regimen Daily Repeat, gender Male, age 6 weeks
# CONDITION INFO: in vivo, po, 100 mg/kg, 72 h, tissue Blood, route gavage, dose level Low, time 3 day
Listed here: items and their measured MCV.
PARAMETER: MCV (fL)

>>> numeric_readout("CCOc1ccc(NC(=O)CC(C)O)cc1 (stereo not given) [BUCETIN]")
63.9
>>> numeric_readout("COc1ccc2[nH]c([S+]([O-])Cc3ncc(C)c(OC)c3C)nc2c1 (stereo not given) [OMEPRAZOLE]")
61.4
>>> numeric_readout("COC1=CC(=O)C[C@@H](C)[C@]12Oc1c(Cl)c(OC)cc(OC)c1C2=O [GRISEOFULVIN]")
65.4
>>> numeric_readout("NC(N)=Nc1nc(CSCCC(N)=NS(N)(=O)=O)cs1 [FAMOTIDINE]")
62.1
>>> numeric_readout("CCOC(=O)CCC(=O)O[C@H]1[C@H](O[C@@H]2[C@@H](C)[C@H](O[C@H]3C[C@@](C)(OC)[C@@H](O)[C@H](C)O3)[C@@H](C)C(=O)O[C@H](CC)[C@@](C)(O)[C@H](O)[C@@H](C)C(=O)[C@H](C)C[C@@]2(C)O)O[C@H](C)C[C@@H]1N(C)C [ERYTHROMYCIN ETHYLSUCCINATE]")
61.1

Origin of measurements: ChEMBL document CHEMBL3885861
